All figures here come from patent US10428045B2.

Test system: Human peripheral blood mononuclear cells (PBMC)
Experiment: PBMC screening assay, TNF-α in supernatant
Type: cell-based
Conditions: TNF-α in supernatant of human PBMC, 24 hours, ELISA or HTRF
Structures can show the parent of a compound that is named as a salt.
Property: EC50; scope: individual compounds

* CCCN(CCC)C(=O)C1=Cc2ccc(C(=O)Nc3ccc4c(c3)NCCC4)cc2N=C(N)C1 | < 500 nM
* CCCN(CCC)C(=O)C1=Cc2ccc(C(=O)Nc3cncc(CNC(=O)[C@H](N)Cc4ccccc4)c3)cc2N=C(N)C1 | < 500 nM
* CCCN(CCC)C(=O)C1=Cc2ccc(C(=O)Nc3cnc4c(c3)CN(Cc3ccccc3)CC4)cc2N=C(N)C1 | < 500 nM
* CCCN(CCC)C(=O)C1=Cc2ccc(C(=O)Nc3cccc(CNC(=O)CCc4ccccc4)c3)cc2N=C(N)C1 [Compound 1.31, bis TFA salt] | < 500 nM
* CCCN(CCC)C(=O)C1=Cc2ccc(C(=O)NCC3OB(O)c4ccccc43)cc2N=C(N)C1 (stereo not drawn) | 500 to 1000 nM
* CCCN(CCC)C(=O)C1=Cc2ccc(C(=O)Nc3cncc(CNC(=O)NCc4ccccc4)c3)cc2N=C(N)C1 [Compound 1.32, bis TFA salt] | < 500 nM
* CCCN(CCC)C(=O)C1=Cc2ccc(C(=O)N[C@@H](C)c3ccccc3)cc2N=C(N)C1 [Compound 1.21, trifluoroacetate salt] | < 500 nM
* CCCN(CCC)C(=O)C1=Cc2ccc(C(=O)Nc3cnc4c(c3)C(N)CCC4)cc2N=C(N)C1 (stereo not drawn) | < 500 nM

Query: Item CCCN(CCC)C(=O)C1=Cc2ccc(C(=O)Nc3ccc(C(C)=O)cc3)cc2N=C(N)C1 [Compound 1.25, trifluoroacetate salt] has what recorded EC50?
Reply: < 500 nM

Query: Item CCCN(CCC)C(=O)C1=Cc2ccc(C(=O)Nc3ccc4c(c3)CCCN4)cc2N=C(N)C1 [Compound 1.12, trifluoroacetate salt] has what recorded EC50?
Reply: < 500 nM

Query: Item CCCN(CCC)C(=O)C1=Cc2ccc(C(=O)NCCNC(=O)OCc3ccccc3)cc2N=C(N)C1 [Compound 1.26, trifluoroacetate salt] has what recorded EC50?
Reply: < 500 nM

Query: Item CCCN(CCC)C(=O)C1=Cc2ccc(NC(=O)c3cccnc3)cc2N=C(N)C1 has what recorded EC50?
Reply: 500 to 1000 nM

Query: Item CCCN(CCC)C(=O)C1=Cc2ccc(C(=O)Nc3cncc(CNC(=O)Oc4ccccc4)c3)cc2N=C(N)C1 has what recorded EC50?
Reply: < 500 nM

Query: Item CCCN(CCC)C(=O)C1=Cc2ccc(C(=O)Nc3ccc4c(c3)C(=O)CCC4)cc2N=C(N)C1 [Compound 1.4, trifluoroacetate salt] has what recorded EC50?
Reply: < 500 nM

Query: Item CCCN(CCC)C(=O)C1=Cc2ccc(C(=O)Nc3ccc(N4CCC(N)CC4)nc3)cc2N=C(N)C1 [Compound 1.57, tris HCl salt] has what recorded EC50?
Reply: < 500 nM

Query: Item CCCN(CCC)C(=O)C1=Cc2ccc(C(=O)Nc3cnc4c(c3)CNCC4)cc2N=C(N)C1 has what recorded EC50?
Reply: < 500 nM

----------
Property: pEC50; scope: individual compounds
Test system: Human peripheral blood mononuclear cells (PBMC)
Assay: PBMC screening assay, TNF-α in supernatant
Assay type: cell-based
Settings: TNF-α in supernatant of human PBMC, 24 hours, ELISA or HTRF
pEC50: −log10 of the molar value.

For orientation, consider the following solved cases.
- CCCN(CCC)C(=O)C1=Cc2ccc(C(=O)Nc3ccc4c(c3)CCN(C(=O)OCc3ccccc3)C4)cc2N=C(N)C1 [Compound 1.29]: > 6.30
- CCCN(CCC)C(=O)C1=Cc2ccc(C(=O)Nc3cncc(C4CCNC4)c3)cc2N=C(N)C1 (stereo not shown) [Compound 1.58]: 6.00 to 6.30
- CCCN(CCC)C(=O)C1=Cc2ccc(C(=O)Nc3cncc(CNC(=O)C4CCc5ccccc5N4)c3)cc2N=C(N)C1 (stereo not shown) [Compound 1.33]: > 6.30

Query: Item CCCN(CCC)C(=O)C1=Cc2ccc(C(=O)Nc3cncc(CNC(=O)C4Cc5ccccc5CN4)c3)cc2N=C(N)C1 (stereo not shown) [Compound 1.34] has what recorded pEC50?
Reply: > 6.30
